target: S-layer protein EA1 (Bacillus anthracis Sterne, UniProt P94217); assay: SPR; […] (5 µg/ml in 10 mM sodium acetate pH 4.0); […], dissociation 10 min; […]; settings: both partners purified
Recorded measurements of koff, one per entry

{"columns": ["binder", "koff (s⁻¹)"],
 "data": [
  ["sdAb G10 (VHH, source: E. coli Rosetta, periplasmic (pECAN45), purified (IMAC, Superdex 75)) VHH: DVQLQASGGGLVQPGGSLKLSCVASGSTFSPDMMRWYRQAPGKQRDLVAWISTSGFTMYADSVKGRFTISRDNAKNTVYLQMNSLKPEDAAVYYCNANRFSGPDYWGQGMQVSVSS", 0.000166],
  ["sdAb C7 (VHH, source: E. coli Rosetta, periplasmic (pECAN45), purified (IMAC, Superdex 75)) VHH: EVQLQASGGGLVQPGGSLNLSCAASGEILSFNSMGWYRQAPGKQCELVAVILSGFSPNYADSVKGRFTISRDGAKNTVFLRMNRLKPEDTADYYCAARFYGAIRDEQSVNYWGQGTRVTVSS", 0.000248],
  ["sdAb A1 (VHH, source: E. coli Rosetta, periplasmic (pECAN45), purified (IMAC, Superdex 75)) VHH: DVQLQASGGGLVQAGGSLELSCVVVGESIIDYQMAWFRQMVGREREFVAAITGDSHYSDYSASASGRFTISRDNAKKTVSLQMNHLKPEDTALYYCAARKGFGINRLSTAFDYWGHGTQVTVSS", 0.000233]
]}
